# ASSAY_NAME: PBMC cytotoxicity assay
# Type: cell-based
# CONDITION_PARAMETERS: human, cryopreserved PBMCs
OBSERVED_PROPERTY: CC50 at 5 days (µM)

INSERT INTO measurements (molecule, unit_spec, comparison_sign, recorded_value) VALUES
  ('C[C@H](N[P@](=O)(OC[C@@]1(C#N)O[C@@H](c2ccc3c(N)ncnn23)[C@H](O)[C@@H]1O)Oc1ccccc1)C(=O)OC1CCCCC1', 'µM', '>', 31.6),
  ('CCC(CC)COC(=O)[C@H](C)N[P@](=O)(OC[C@@]1(C#N)O[C@@H](c2ccc3c(N)ncnn23)[C@H](O)[C@@H]1O)Oc1ccccc1', 'µM', '=', 4.79),
  ('CCOC(=O)[C@H](C)NP(=O)(OC[C@@]1(C#N)O[C@@H](c2ccc3c(N)ncnn23)[C@H](O)[C@@H]1O)Oc1ccccc1 (stereo partly shown) [Compound 1, reference compound]', 'µM', '=', 18.2),
  ('CCC(CC)COC(=O)[C@H](C)NP(=O)(OC[C@@]1(C#N)O[C@@H](c2ccc3c(N)ncnn23)[C@H](O)[C@@H]1O)Oc1ccccc1 (stereo partly shown) [Compound 2, reference compound]', 'µM', '=', 4.65);

----------
# ASSAY_NAME: HEp-2 cytotoxicity assay
# Type: cell-based
# CONDITION_PARAMETERS: human, HEp-2 cells (uninfected), 4-5 days
OBSERVED_PROPERTY: CC50

INSERT INTO measurements (compound, recorded_value) VALUES
  ('CCOC(=O)[C@H](C)NP(=O)(OC[C@@]1(C#N)O[C@@H](c2ccc3c(N)ncnn23)[C@H](O)[C@@H]1O)Oc1ccccc1 (some centres unmarked) [Compound 1, reference compound]', '> 91.5 µM'),
  ('CCOC(=O)[C@H](C)N[P@](=O)(OC[C@@]1(C#N)O[C@@H](c2ccc3c(N)ncnn23)[C@H](O)[C@@H]1O)Oc1ccccc1', '> 100 µM'),
  ('CCC(CC)COC(=O)[C@H](C)N[P@](=O)(OC[C@@]1(C#N)O[C@@H](c2ccc3c(N)ncnn23)[C@H](O)[C@@H]1O)Oc1ccccc1', '> 95 µM'),
  ('CCC(CC)COC(=O)[C@H](C)NP(=O)(OC[C@@]1(C#N)O[C@@H](c2ccc3c(N)ncnn23)[C@H](O)[C@@H]1O)Oc1ccccc1 (some centres unmarked) [Compound 2, reference compound]', '> 95.4 µM'),
  ('C[C@H](N[P@](=O)(OC[C@@]1(C#N)O[C@@H](c2ccc3c(N)ncnn23)[C@H](O)[C@@H]1O)Oc1ccccc1)C(=O)OC1CCCCC1', '> 100 µM');

----------
# System: Dengue serotype 2 New Guinea C (NGC) strain
# ASSAY_NAME: DENV-2 Huh-7 EC50
# Assay type: cell-based
# CONDITION_PARAMETERS: Dengue virus, Huh7 cells, 48 hours, qPCR
pEC50: −log10 of the molar value.
OBSERVED_PROPERTY: pEC50

INSERT INTO results (smiles_text, test_system, recorded_value) VALUES
  ('C[C@H](N[P@](=O)(OC[C@@]1(C#N)O[C@@H](c2ccc3c(N)ncnn23)[C@H](O)[C@@H]1O)Oc1ccccc1)C(=O)OC1CCCCC1', 'Dengue serotype 2 New Guinea C (NGC) strain', 5.79);
